The reported numbers originate from ChEMBL document CHEMBL1201862.

Test system: OVCAR-3
PROTOCOL DESCRIPTION: NCI tumour cell line growth inhibition, 48 h
Active and inactive are the calls of the source. Rule as the data show it: active = GI50 up to about 1.1 µM and inactive = higher.
Return exactly one item of label 1 (active), label 0 (inactive)

Could you check what this test reported for Cc1ccc(S(=O)(=O)NN=C2C(C)CC(C(C)(C)C)CC2C)cc1 (configuration not stated) ?
label 0

Could you check what this test reported for C(/Cc1ccc2c(c1)OCO2)=N\N=C1NCCCCN1 ?
label 0

Could you check what this test reported for CCN1CCC(O)(c2ccc(Oc3ccccc3)cc2)C(C(=O)c2ccc(Oc3ccccc3)cc2)C1 (configuration not stated) ?
label 0

Could you check what this test reported for O=c1c2ccccc2nc2n1CCc1c-2[nH]c2ccc(Br)cc12 ?
label 0

Could you check what this test reported for CC1(C)OC(=S)N(c2ccccc2)C12C=Cc1cc3ccccc3nc1S2 (configuration not stated) ?
label 0

Could you check what this test reported for CC(=O)OC1(C)N=NC2(CCCCC2)O1 (configuration not stated) ?
label 0

Could you check what this test reported for CC1=NN(c2nc(N)nc(COCc3nc(N)nc(N4N=C(C)CC4(C)C)n3)n2)C(C)(C)C1 ?
label 0

Could you check what this test reported for CCCCCC#CCOC(=O)C(=[N+]=[N-])P(=O)(c1ccccc1)c1ccccc1 ?
label 0

Could you check what this test reported for COc1cccc(-c2cc(O)c3c(C)ccnc3n2)c1 ?
label 1

Could you check what this test reported for CC1=NN(C(=O)c2ccncc2)C(=O)C1 ?
label 0

Could you check what this test reported for O=C(CSc1nc(-c2ccccc2)c(-c2ccccc2)[nH]1)N/N=C/c1ccc(O)cc1 ?
label 0

Could you check what this test reported for CCOc1cccc2ccc[n+](CC)c12 ?
label 0

Could you check what this test reported for O=C1c2c(Cl)c(Cl)c(Cl)c(Cl)c2C(=O)N1CCN(c1c(Cl)ssc1=O)c1c(Cl)ssc1=O ?
label 0

Could you check what this test reported for C1CSCCSS[C@@H]2CCCCC2SC1 (some centres not stated) ?
label 0

Could you check what this test reported for Cc1cc2c(=O)cc(-c3ccc(F)cc3)oc2c(C(=O)O)c1C ?
label 0

Could you check what this test reported for CCC1(CC)C(=O)N(C(=O)c2cc(OC)c(OC)c(OC)c2)N(C(=O)c2cc(OC)c(OC)c(OC)c2)C1=O ?
label 0

Could you check what this test reported for CN1C2C=C(c3ccccc3)CC1CC2 (configuration not stated) ?
label 0

Could you check what this test reported for CCCc1ccc(OCC(=O)N/N=C/c2c(-c3ccccc3)[nH]c3ccccc23)cc1 ?
label 0

Could you check what this test reported for CCOc1cc(NC(C)=O)ccc1C(=O)NN1C(=O)C(Cl)C1c1ccco1 (configuration not stated) ?
label 0

Could you check what this test reported for C/C=C1/CC(C(=O)OC)N(C(=O)OCc2ccccc2)C1=S (configuration not stated) ?
label 0

Could you check what this test reported for COc1cc2c(cc1OC)OC(c1c(OC)ccc(OC)c1O)CC2 (configuration not stated) ?
label 0

Could you check what this test reported for Cc1ccc(S(=O)(=O)c2c3nc4ccccc4nc3n3c2[nH]c2ccccc23)cc1 ?
label 0
